system: PAD; experiment: qHTS profiling for inhibitors of Plasmodium falciparum proliferation (AID 504749); note: nearly all actives have a fitted effect of over 60% in size; conditions: P. falciparum in erythrocytes, SYBR Green DNA, 72 h; series mostly up to 28.7 µM
Results filed as inconclusive are left out. Activity calls are given as the source filed them. Calls come from the whole dose curve; as a rule, active = well fitted inhibition curve with a large enough effect; inconclusive = small, poorly fitted or top-dose-only effect; inactive = flat fitted curve, though single readings scatter.
Outcome (select one): T = active, F = inactive

Answered cases to consult:
[
  {
    "COMPOUND": "Nc1ncnc2c1ncn2[C@H]1CC[C@@H](CO)O1",
    "DISCRETE LABEL": "F"
  },
  {
    "COMPOUND": "CC/C=C\\C/C=C\\C/C=C\\C/C=C\\C/C=C\\CCCC(=O)O",
    "DISCRETE LABEL": "F"
  }
]

[Q] Kindly provide the recorded test outcome for the following compound: CC1(C)S[C@@H]2[C@H](NC(=O)C3(N)CCCCC3)C(=O)N2[C@H]1C(=O)O
[A] F

[Q] Just curious, what result did CN(C)CCOc1ccc(/C(=C(/CCCl)c2ccccc2)c2ccccc2)cc1 get here?
[A] F

[Q] Per the records of this test, what outcome belongs to CCC(=O)c1ccc2c(c1)N(CCCN1CCN(CCO)CC1)c1ccccc1S2 ?
[A] T
